# IC50 per record follows
- target: Phosphatidylinositol 4,5-bisphosphate 3-kinase catalytic subunit alpha isoform (Homo sapiens, UniProt P42336)
- Sequence (P42336 whole entry, canonical isoform): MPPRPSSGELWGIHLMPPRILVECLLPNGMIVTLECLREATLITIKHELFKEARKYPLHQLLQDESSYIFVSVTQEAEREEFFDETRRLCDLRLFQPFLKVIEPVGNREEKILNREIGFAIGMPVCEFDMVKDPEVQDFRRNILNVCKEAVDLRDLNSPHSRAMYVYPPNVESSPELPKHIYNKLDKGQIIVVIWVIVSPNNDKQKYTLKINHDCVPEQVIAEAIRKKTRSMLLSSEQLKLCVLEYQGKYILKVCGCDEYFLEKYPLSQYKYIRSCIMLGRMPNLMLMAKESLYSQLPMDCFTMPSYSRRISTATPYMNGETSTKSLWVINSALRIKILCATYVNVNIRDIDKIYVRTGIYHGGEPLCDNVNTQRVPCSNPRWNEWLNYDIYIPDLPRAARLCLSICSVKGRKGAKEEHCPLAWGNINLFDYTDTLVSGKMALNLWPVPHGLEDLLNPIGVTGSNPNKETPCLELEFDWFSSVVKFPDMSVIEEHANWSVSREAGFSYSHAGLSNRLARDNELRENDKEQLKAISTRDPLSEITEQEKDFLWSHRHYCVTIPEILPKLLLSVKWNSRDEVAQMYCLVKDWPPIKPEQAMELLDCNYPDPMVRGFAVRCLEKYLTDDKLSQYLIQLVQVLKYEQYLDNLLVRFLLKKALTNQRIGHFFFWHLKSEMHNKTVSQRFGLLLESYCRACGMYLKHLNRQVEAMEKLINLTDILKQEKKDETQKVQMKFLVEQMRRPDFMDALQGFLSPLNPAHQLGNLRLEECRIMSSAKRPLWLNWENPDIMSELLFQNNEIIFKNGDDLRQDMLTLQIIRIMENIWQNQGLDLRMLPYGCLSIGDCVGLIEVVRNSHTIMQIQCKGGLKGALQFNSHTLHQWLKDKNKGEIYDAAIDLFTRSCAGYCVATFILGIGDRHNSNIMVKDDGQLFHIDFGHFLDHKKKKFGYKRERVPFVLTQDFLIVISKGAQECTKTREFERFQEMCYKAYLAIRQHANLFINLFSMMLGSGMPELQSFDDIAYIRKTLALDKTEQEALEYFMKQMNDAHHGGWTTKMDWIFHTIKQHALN
- procedureText: Inhibition of human His-tagged PI3K p110alpha after 2 hrs by HTRF assay
assayReadout: IC50 (nM)

INSERT INTO results (smilestext, resultvalue) VALUES
  ('COc1ccc2c(nc(C(F)F)n2-c2nc(N3CCOCC3)nc(N3CCOCC3)n2)c1O', 70),
  ('FC(F)Oc1cccc2c1nc(C(F)F)n2-c1nc(N2CCOCC2)nc(N2CCOCC2)n1', 4.7),
  ('Oc1cccc2c1nc(C(F)F)n2-c1nc(N2CCOCC2)nc(N2CCOCC2)n1', 0.53);

---

- target: Phosphatidylinositol 4,5-bisphosphate 3-kinase catalytic subunit alpha isoform (Mus musculus, UniProt P42337)
- Sequence (P42337 whole entry, canonical isoform): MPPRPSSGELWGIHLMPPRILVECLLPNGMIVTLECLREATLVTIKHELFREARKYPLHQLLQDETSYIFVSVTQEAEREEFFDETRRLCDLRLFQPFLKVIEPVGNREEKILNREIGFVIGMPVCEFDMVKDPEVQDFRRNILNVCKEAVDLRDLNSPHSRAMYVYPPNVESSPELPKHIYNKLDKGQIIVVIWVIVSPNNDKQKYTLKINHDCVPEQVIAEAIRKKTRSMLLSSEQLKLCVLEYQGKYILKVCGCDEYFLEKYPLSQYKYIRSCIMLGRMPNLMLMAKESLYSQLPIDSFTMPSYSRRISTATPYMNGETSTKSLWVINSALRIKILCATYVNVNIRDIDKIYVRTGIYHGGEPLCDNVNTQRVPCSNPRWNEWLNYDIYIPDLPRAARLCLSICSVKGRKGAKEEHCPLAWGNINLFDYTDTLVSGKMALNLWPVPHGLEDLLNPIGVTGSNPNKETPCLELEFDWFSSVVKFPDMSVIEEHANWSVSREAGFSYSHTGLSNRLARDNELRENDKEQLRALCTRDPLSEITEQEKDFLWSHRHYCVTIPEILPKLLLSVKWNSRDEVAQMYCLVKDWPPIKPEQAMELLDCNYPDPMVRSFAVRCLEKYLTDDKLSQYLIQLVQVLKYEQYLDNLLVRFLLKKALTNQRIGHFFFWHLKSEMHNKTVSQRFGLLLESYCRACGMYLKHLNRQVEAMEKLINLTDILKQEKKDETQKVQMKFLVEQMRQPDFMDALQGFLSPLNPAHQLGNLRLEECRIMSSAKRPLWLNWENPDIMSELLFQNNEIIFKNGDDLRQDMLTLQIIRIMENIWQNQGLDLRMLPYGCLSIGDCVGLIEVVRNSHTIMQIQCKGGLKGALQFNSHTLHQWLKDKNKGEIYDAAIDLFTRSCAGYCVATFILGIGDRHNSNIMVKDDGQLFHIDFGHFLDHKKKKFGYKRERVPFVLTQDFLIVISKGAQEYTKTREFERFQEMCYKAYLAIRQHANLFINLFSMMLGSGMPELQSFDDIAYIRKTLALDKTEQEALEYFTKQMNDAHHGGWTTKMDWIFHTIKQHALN
- procedureText: Inhibition of mouse recombinant PI3K p110alpha expressed in Sf21 insect cells using phosphatidylinositol as substrate after 1 hr by phosphoimaging
assayReadout: IC50

INSERT INTO measurements (smilestext, assayreadout, resultvalue) VALUES
  ('Cc1nc2ccccc2n1-c1nc(N2CCOCC2)nc(N2CCOCC2)n1', 'IC50', '143 nM'),
  ('COc1ccc2c(nc(C(F)F)n2-c2nc(N3CCOCC3)nc(N3CCOCC3)n2)c1O', 'IC50', '37 nM'),
  ('COc1cccc2c1nc(C(F)F)n2-c1cc(N2CCOCC2)nc(N2CCOCC2)n1', 'IC50', '4 nM'),
  ('CS(=O)(=O)Cc1nc2ccccc2n1-c1nc(N2CCOCC2)nc(N2CCOCC2)n1', 'IC50', '480 nM'),
  ('COc1cccc2c1nc(C(F)F)n2-c1nc(N2CCOCC2)cc(N2CCOCC2)n1', 'IC50', '5.1 nM'),
  ('CN(C)c1cccc2c1nc(C(F)F)n2-c1nc(N2CCOCC2)nc(N2CCOCC2)n1', 'IC50', '5400 nM'),
  ('OCc1nc2ccccc2n1-c1nc(N2CCOCC2)nc(N2CCOCC2)n1', 'IC50', '> 1000 nM'),
  ('COc1cc(OC)c2nc(C(F)F)n(-c3nc(N4CCOCC4)nc(N4CCOCC4)n3)c2c1', 'IC50', '58 nM'),
  ('CC(C)Oc1cccc2c1nc(C(F)F)n2-c1nc(N2CCOCC2)nc(N2CCOCC2)n1', 'IC50', '364 nM'),
  ('CN(C)C(=O)c1cccc2c1nc(C(F)F)n2-c1nc(N2CCOCC2)nc(N2CCOCC2)n1', 'IC50', '> 1000 nM'),
  ('COC(=O)c1cccc2c1nc(C(F)F)n2-c1nc(N2CCOCC2)nc(N2CCOCC2)n1', 'IC50', '9.3 nM'),
  ('FC(F)c1nc2ccccc2n1-c1cc(N2CCOCC2)nc(N2CCOCC2)n1', 'IC50', '88 nM'),
  ('CSCc1nc2ccccc2n1-c1nc(N2CCOCC2)nc(N2CCOCC2)n1', 'IC50', '170 nM');
